# SUBJECT OF TEST: T1, SNTA1, Q13424
# T1 sequence (Q13424 82-180, limits assumed, looked up): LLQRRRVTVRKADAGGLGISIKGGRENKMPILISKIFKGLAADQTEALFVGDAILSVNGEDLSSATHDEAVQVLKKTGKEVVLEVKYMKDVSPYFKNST
# MEASUREMENT PROTOCOL: holdup assay
# Parameters: key: below the threshold = too weak to quantify, mostly under pKd 3.1 to 4
# MEASUREMENT PARAMETERS: plain residues with an end cap or a label only (N-terminal biotin on a linker: ado-ado)
Given measured pKd, output 1 if it is greater than or equal to 4 and 0 if not.

| BINDER | GROUP |
| --- | --- |
| THREVKFTSL [CD46, P15529] | 1 |
| IQISELETNV [SLC1A7, O00341] | 1 |
| ATKDKKITTV [EXOC4, Q96A65] | 1 |
| QKNKDREYYV [NRXN3, Q9HDB5] | 0 |
| FHSIKQSTAV [CRHR1, P34998] | 0 |
| IKLETKKTKL [SLC15A2, Q16348] | 0 |
| TFSRRPKTRV [CD226, Q15762] | 0 |
| SQDPKKPSRV [CBY2, Q8NA61] | 0 |
